Reported values of IC50 for individual entries
TESTED TARGET: full-length beta-Catenin (Uniprot ID P35222) (Homo sapiens, UniProt P35222)
Construct: 10 nM full-length beta-Catenin (Uniprot ID P35222)
Sequence (P35222 whole entry): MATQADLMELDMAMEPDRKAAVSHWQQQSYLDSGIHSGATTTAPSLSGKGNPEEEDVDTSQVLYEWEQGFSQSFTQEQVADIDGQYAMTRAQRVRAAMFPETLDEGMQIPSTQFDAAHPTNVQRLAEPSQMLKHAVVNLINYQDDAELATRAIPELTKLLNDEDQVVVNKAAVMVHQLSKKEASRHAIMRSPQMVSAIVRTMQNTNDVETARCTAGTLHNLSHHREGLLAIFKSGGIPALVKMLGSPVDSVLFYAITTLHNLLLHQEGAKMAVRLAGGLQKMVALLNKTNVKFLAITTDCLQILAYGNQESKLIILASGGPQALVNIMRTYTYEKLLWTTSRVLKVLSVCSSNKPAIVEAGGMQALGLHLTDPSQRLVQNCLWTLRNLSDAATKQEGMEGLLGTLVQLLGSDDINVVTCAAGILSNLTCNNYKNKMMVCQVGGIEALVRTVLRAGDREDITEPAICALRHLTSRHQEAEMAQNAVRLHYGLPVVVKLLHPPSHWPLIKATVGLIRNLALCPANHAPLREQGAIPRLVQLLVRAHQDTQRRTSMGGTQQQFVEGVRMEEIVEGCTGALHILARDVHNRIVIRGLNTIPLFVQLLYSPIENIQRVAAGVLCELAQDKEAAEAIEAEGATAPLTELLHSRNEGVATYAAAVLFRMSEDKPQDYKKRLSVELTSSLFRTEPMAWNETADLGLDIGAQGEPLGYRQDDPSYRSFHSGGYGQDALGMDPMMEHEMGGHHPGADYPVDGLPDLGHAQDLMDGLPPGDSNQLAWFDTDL
ASSAY DETAILS: Fluorescence polarization IC50 (beta-catenin / 5FAM-TCF4 10-53 competition)
Type: binding
RUN PARAMETERS: fluorescence polarization; read-out: beta-Catenin FP IC50
MEASURE NAME: IC50 (nM)

COMPOUND | TESTED TARGET | EXPERIMENTAL VALUE
CCNC(=O)[C@H](CCC(N)=O)NC(=O)[C@H](Cc1csc2ccccc12)NC(=O)[C@H](Cc1ccccc1Cl)NC(=O)[C@]12CCN(C1)C(=O)OCCCC=CCCCC1(CCCC=CC[C@]3(CCCN3C(C)=O)C(=O)N[C@@H](CC(=O)O)C(=O)N[C@@H](CC(C)(C)C)C(=O)N1)C(=O)N[C@@H](CC(=O)O)C(=O)N[C@@H](CC(=O)O)C(=O)N[C@@H](C)C(=O)N[C@@H](C)C(=O)N[C@@H](Cc1ccccc1)C(=O)N[C@@H](CC(C)C)C(=O)N2 (some centres unmarked) | full-length beta-Catenin (Uniprot ID P35222) (Homo sapiens, UniProt P35222) | 19
CC(=O)N1CCC[C@]12CC=CCCCC1(CCCC=CCCCCCC[C@@](C)(C(=O)N[C@@H](Cc3ccccc3)C(=O)N[C@@H](Cc3csc4ccccc34)C(=O)N[C@@H](CCC(N)=O)C(N)=O)NC(=O)[C@H](CC(N)=O)NC(=O)[C@H](Cc3ccccc3)NC(=O)[C@H](C)NC(=O)[C@H](C)NC(=O)[C@H](CCC(=O)O)NC(=O)[C@H](CC(=O)O)NC1=O)NC(=O)[C@H](CC(C)(C)C)NC(=O)[C@H](CC(=O)O)NC2=O (some centres unmarked) | full-length beta-Catenin (Uniprot ID P35222) (Homo sapiens, UniProt P35222) | 22

Data origin: patent US20240116985A1
